- studyTarget: T1, Bcd homeodomain (Drosophila melanogaster, UniProt P09081-2 77-166)
- T1 sequence: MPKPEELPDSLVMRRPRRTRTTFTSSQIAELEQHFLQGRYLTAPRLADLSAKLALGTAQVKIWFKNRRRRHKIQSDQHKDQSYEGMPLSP
- assaySummary: FP; 33 mM phosphate pH 7.0, 90 mM NaCl, 0.01% Tween 20, 0.1 mM DTT, 0.5% agarose; room temperature
- conditionNotes: tags: N-GST (pGEX-6P-1, kept); printed reverse strand differs at base 6 of strand 1 (G / C); complement of the forward strand used
For each entry below, report its Kd value.
Provide only the numeric value, understood in nM.

So what does the record say about Kd for Bcd oligo 14 (dsDNA) DNA 1: TCGACGGTGATCCCTA DNA 2: TAGGGATCACCGTCGA ?
8.98

So what does the record say about Kd for Bcd oligo 23 (dsDNA) DNA 1: TCGACGGTAATTCCTA DNA 2: TAGGAATTACCGTCGA ?
27.2

So what does the record say about Kd for Bcd oligo 13 (dsDNA) DNA 1: TCGACGGTCATCCCTA DNA 2: TAGGGATGACCGTCGA ?
64.3

All figures here come from paper PMC5913336.
